assay: Cytotoxicity against human neutrophils assessed as cell viability after 4 hrs by XTT assay; format: cell-based; details: Neutrophil
observable: pEC50
Recall that pEC50 is obtained by taking minus log10 of the concentration measured in molar.

What measured pEC50 goes with CC(C)(C)n1nnc([C@H](CCCNC(=N)CCl)NC(=O)c2ccc(-c3ccccc3)cc2)n1 ?
4.51

Fill in: pEC50 of CC(C)(C)n1nnc([C@H](CCCNC(=N)CCl)NC(=O)c2ccccc2C(=O)O)n1 is ___
3.01
